- measured.target: Epidermal growth factor receptor (Homo sapiens)
- Sequence (P00533 whole entry): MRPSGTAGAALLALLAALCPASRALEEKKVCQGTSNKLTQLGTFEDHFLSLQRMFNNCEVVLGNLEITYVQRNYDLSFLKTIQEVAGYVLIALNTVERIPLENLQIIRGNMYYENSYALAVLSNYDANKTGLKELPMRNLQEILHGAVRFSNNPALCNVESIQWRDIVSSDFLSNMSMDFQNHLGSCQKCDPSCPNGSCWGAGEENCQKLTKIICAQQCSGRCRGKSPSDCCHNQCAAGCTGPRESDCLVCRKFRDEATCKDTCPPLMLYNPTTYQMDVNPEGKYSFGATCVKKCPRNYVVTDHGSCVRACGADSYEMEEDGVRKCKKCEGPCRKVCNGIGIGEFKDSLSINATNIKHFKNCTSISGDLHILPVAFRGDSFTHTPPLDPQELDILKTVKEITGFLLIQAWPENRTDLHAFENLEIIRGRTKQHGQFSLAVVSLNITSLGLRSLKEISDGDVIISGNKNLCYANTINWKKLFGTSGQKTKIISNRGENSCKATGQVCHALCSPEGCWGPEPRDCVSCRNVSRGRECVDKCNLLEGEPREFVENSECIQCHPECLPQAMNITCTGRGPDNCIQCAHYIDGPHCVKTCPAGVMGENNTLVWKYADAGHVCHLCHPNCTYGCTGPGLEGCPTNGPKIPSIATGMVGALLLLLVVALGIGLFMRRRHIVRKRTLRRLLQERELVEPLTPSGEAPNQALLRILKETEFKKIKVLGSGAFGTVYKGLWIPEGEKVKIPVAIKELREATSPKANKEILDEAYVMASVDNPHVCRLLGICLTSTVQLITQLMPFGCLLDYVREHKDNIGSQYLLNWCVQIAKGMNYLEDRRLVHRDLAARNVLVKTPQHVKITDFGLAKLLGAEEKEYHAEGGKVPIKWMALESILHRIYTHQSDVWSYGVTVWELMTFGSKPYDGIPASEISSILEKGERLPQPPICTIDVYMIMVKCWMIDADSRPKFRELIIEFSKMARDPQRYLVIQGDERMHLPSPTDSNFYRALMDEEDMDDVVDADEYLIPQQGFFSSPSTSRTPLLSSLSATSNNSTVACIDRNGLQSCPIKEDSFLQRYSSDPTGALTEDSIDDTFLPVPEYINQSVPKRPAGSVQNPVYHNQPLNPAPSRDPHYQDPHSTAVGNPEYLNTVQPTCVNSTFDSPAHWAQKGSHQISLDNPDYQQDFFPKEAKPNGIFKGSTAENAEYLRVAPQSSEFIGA
assay.metric: IC50 (nM)

- smiles.input: "C=CC(=O)Nc1cccc(Nc2nc(Nc3ccc(/C=C/c4cc(OC)cc(OC)c4)cc3)ncc2Cl)c1"
  value.observed: 216
- smiles.input: "C=CC(=O)Nc1cccc(Oc2nc(Nc3ccc(/C=C/c4cc(C)cc(C)c4)cc3)ncc2Cl)c1"
  value.observed: 87
- smiles.input: "C=CC(=O)Nc1cccc(Nc2nc(Nc3ccc(/C=C/c4ccc(C)cc4C)cc3)ncc2F)c1"
  value.observed: 387
- smiles.input: "C=CC(=O)Nc1cccc(Nc2nc(Nc3ccc(/C=C/c4cc(C)cc(C)c4)cc3)ncc2Cl)c1"
  value.observed: 607

Cited source for all entries: ChEMBL document CHEMBL4024721
